These measurements were taken from ChEMBL document CHEMBL4765380.

- Measurement Description: Selectivity index, ratio of IC50 for cytotoxicity against human HDF cells to IC50 for cytotoxicity against human U-87 MG cells
- Assay type: toxicity, cell-based
- Particulars: HDF cells versus U-87 MG cells, read-out: Ratio IC50
Test Readout: selectivity ratio
API note: the answer field is a bare number with no unit suffix.

# annotated cases, reported selectivity ratio shown
# Test Smiles, selectivity ratio
rows = [
    ("CO[C@H]1/C=C\\C=C(/C)C(=O)NC2=CC(=O)C(NCc3cccc(CS(=O)(=O)N(C(C)C)C(C)C)c3)=C(C[C@@H](C)C[C@H](OC)[C@H](O)[C@@H](C)/C=C(\\C)[C@@H]1OC(N)=O)C2=O", 2.25),
    ("COC1=C2C[C@@H](C)C[C@H](OC)[C@H](O)[C@@H](C)/C=C(\\C)[C@H](OC(N)=O)[C@@H](OC)/C=C\\C=C(/C)C(=O)NC(=CC1=O)C2=O", 2.62),
]

## Task Which selectivity ratio value is on record for "CO[C@H]1/C=C\C=C(/C)C(=O)NC2=CC(=O)C(NCCCN3CCCC3)=C(C[C@@H](C)C[C@H](OC)[C@H](O)[C@@H](C)/C=C(\C)[C@@H]1OC(N)=O)C2=O" ?
## Result 3.62

---

Listed here are compounds together with their documented Kd.
- Measurement Description: Binding affinity to HSP90 (unknown origin) assessed as dissociation constant by isothermal titration calorimetry
- Design: species or system Homo sapiens
State the answer as a number, implicitly in nM.

Past entries and their recorded results:
# Compound, Test Readout, Reading
records = [
    ("CO[C@H]1/C=C\\C=C(/C)C(=O)NC2=CC(=O)C(NCC3CCC(C(=O)O)CC3)=C(C[C@@H](C)C[C@H](OC)[C@H](O)[C@@H](C)/C=C(\\C)[C@@H]1OC(N)=O)C2=O (some centres undefined)", "Kd", 940),
    ("CO[C@@H](C=CC=C(C)C(N)=O)[C@@H](OC(N)=O)/C(C)=C/[C@H](C)[C@@H](O)[C@H](C[C@H](C)CC1=C(NCCCCCCO)C(=O)C=C(NCCCCCCO)C1=O)OC", "Kd", 183000),
    ("CO[C@H]1/C=C\\C=C(/C)C(=O)NC2=CC(=O)C(NCC3COCCOCCOCCOCCOCCO3)=C(C[C@@H](C)C[C@H](OC)[C@H](O)[C@@H](C)/C=C(\\C)[C@@H]1OC(N)=O)C2=O (some centres undefined)", "Kd", 1190),
    ("COCCOCCOCCNC1=C2C[C@@H](C)C[C@H](OC)[C@H](O)[C@@H](C)/C=C(\\C)[C@H](OC(N)=O)[C@@H](OC)/C=C\\C=C(/C)C(=O)NC(=CC1=O)C2=O", "Kd", 1370),
    ("CO[C@@H](C=CC=C(C)C(N)=O)[C@@H](OC(N)=O)/C(C)=C/[C@H](C)[C@@H](O)[C@H](C[C@H](C)CC1=C(NCCO)C(=O)C=C(NCCO)C1=O)OC", "Kd", 134000),
]

## Task Could you share which Kd value was measured for "CCOC(=O)N1CCC(NC2=C3C[C@@H](C)C[C@H](OC)[C@H](O)[C@@H](C)/C=C(\C)[C@H](OC(N)=O)[C@@H](OC)/C=C\C=C(/C)C(=O)NC(=CC2=O)C3=O)CC1" ?
## Result 890

## Task Bench note: what Kd did CCOC(=O)C1CCC(CNC2=C3C[C@@H](C)C[C@H](OC)[C@H](O)[C@@H](C)/C=C(\C)[C@H](OC(N)=O)[C@@H](OC)/C=C\C=C(/C)C(=O)NC(=CC2=O)C3=O)CC1 (some centres undefined) show?
## Result 900

## Task Suppose we examine the compound "C#CCCN1CCC(NC2=C3C[C@@H](C)C[C@H](OC)[C@H](O)[C@@H](C)/C=C(\C)[C@H](OC(N)=O)[C@@H](OC)/C=C\C=C(/C)C(=O)NC(=CC2=O)C3=O)CC1" ; what Kd value has been reported?
## Result 2960

## Task What Kd value was documented for this compound, "CO[C@H]1/C=C\C=C(/C)C(=O)NC2=CC(=O)C(NC3CCN(C(=O)OC(C)(C)C)CC3)=C(C[C@@H](C)C[C@H](OC)[C@H](O)[C@@H](C)/C=C(\C)[C@@H]1OC(N)=O)C2=O" ?
## Result 820

---

- Measurement Description: Selectivity index, ratio of IC50 for cytotoxicity against human HDF cells to IC50 for cytotoxicity against human PC-3 cells
- Assay type: toxicity, cell-based
- Particulars: HDF cells versus PC-3 cells, read-out: Ratio IC50
The threshold is inclusive: selectivity ratio of exactly 3 counts as y; values below receive n.

// below: answered molecules
# Molecule, Group Label
measured = [
    ("Nc1ccn([C@@H]2O[C@H](CO)[C@@H](O)[C@@H]2O)c(=O)n1 [CYTARABINE]", "y"),
    ("COCCOCCOCCNC1=C2C[C@@H](C)C[C@H](OC)[C@H](O)[C@@H](C)/C=C(\\C)[C@H](OC(N)=O)[C@@H](OC)/C=C\\C=C(/C)C(=O)NC(=CC1=O)C2=O", "y"),
    ("CO[C@H]1/C=C\\C=C(/C)C(=O)NC2=CC(=O)C(NCC3COCCOCCOCCOCCOCCO3)=C(C[C@@H](C)C[C@H](OC)[C@H](O)[C@@H](C)/C=C(\\C)[C@@H]1OC(N)=O)C2=O (stereo partly specified)", "y"),
    ("CO[C@H]1/C=C\\C=C(/C)C(=O)NC2=CC(=O)C(NCc3ccc(CS(N)(=O)=O)cc3)=C(C[C@@H](C)C[C@H](OC)[C@H](O)[C@@H](C)/C=C(\\C)[C@@H]1OC(N)=O)C2=O", "n"),
    ("CO[C@H]1/C=C\\C=C(/C)C(=O)NC2=CC(=O)C(NC3CCC(O)CC3)=C(C[C@@H](C)C[C@H](OC)[C@H](O)[C@@H](C)/C=C(\\C)[C@@H]1OC(N)=O)C2=O (stereo partly specified)", "n"),
]

## Task Kindly determine if selectivity ratio recorded for "C#CCCN1CCC(NC2=C3C[C@@H](C)C[C@H](OC)[C@H](O)[C@@H](C)/C=C(\C)[C@H](OC(N)=O)[C@@H](OC)/C=C\C=C(/C)C(=O)NC(=CC2=O)C3=O)CC1" is above or exactly 3.
## Result n

---

- Measurement Description: Selectivity index, ratio of IC50 for cytotoxicity against human HDF cells to IC50 for cytotoxicity against human SK-BR-3 cells
- Type: toxicity, cell-based
- Particulars: HDF cells versus SK-BR-3 cells, read-out: Ratio IC50
# selectivity ratio values compiled below
Write no unit; give the number alone.

Some solved cases for reference:
# Test Smiles, selectivity ratio
records = [
    ("CO[C@H]1/C=C\\C=C(/C)C(=O)NC2=CC(=O)C(NC3CCN(S(C)(=O)=O)CC3)=C(C[C@@H](C)C[C@H](OC)[C@H](O)[C@@H](C)/C=C(\\C)[C@@H]1OC(N)=O)C2=O", 2.93),
    ("CO[C@@H](C=CC=C(C)C(N)=O)[C@@H](OC(N)=O)/C(C)=C/[C@H](C)[C@@H](O)[C@H](C[C@H](C)CC1=C(NCCOCCO)C(=O)C=C(NCCOCCO)C1=O)OC", 2.62),
    ("CO[C@H]1/C=C\\C=C(/C)C(=O)NC2=CC(=O)C(NC3CCN(C(=O)OC(C)(C)C)CC3)=C(C[C@@H](C)C[C@H](OC)[C@H](O)[C@@H](C)/C=C(\\C)[C@@H]1OC(N)=O)C2=O", 33.1),
    ("CO[C@H]1/C=C\\C=C(/C)C(=O)NC2=CC(=O)C(NC3CCN(C(C)=O)CC3)=C(C[C@@H](C)C[C@H](OC)[C@H](O)[C@@H](C)/C=C(\\C)[C@@H]1OC(N)=O)C2=O", 4.07),
]

Here is another compound to look at.
## Task Could you tell me which selectivity ratio is on file for "C#CCNC1=C2C[C@@H](C)C[C@H](OC)[C@H](O)[C@@H](C)/C=C(\C)[C@H](OC(N)=O)[C@@H](OC)/C=C\C=C(/C)C(=O)NC(=CC1=O)C2=O" ?
## Result 1.77

---

- Measurement Description: Selectivity index, ratio of IC50 for cytotoxicity against human HDF cells to IC50 for cytotoxicity against human U-87 MG cells
- Format: toxicity, cell-based
- Particulars: HDF cells versus U-87 MG cells, read-out: Ratio IC50
Param threshold (3) applies to selectivity ratio; output met when value >= threshold, not met when value < threshold.

Here are 4 compounds together with their reported answers.
# Test Smiles, Group Label
rows = [
    ("CO[C@H]1/C=C\\C=C(/C)C(=O)NC2=CC(=O)C(NC3CCN(S(C)(=O)=O)CC3)=C(C[C@@H](C)C[C@H](OC)[C@H](O)[C@@H](C)/C=C(\\C)[C@@H]1OC(N)=O)C2=O", "not met"),
    ("CO[C@@H](/C=C/C=C(/C)C(N)=O)[C@@H](OC(N)=O)/C(C)=C/[C@H](C)[C@@H](O)[C@H](C[C@H](C)CC1=C(NCCCN2CCCC2)C(=O)C=C(NCCCN2CCCC2)C1=O)OC", "not met"),
    ("CCOC(=O)N1CCC(NC2=C3C[C@@H](C)C[C@H](OC)[C@H](O)[C@@H](C)/C=C(\\C)[C@H](OC(N)=O)[C@@H](OC)/C=C\\C=C(/C)C(=O)NC(=CC2=O)C3=O)CC1", "met"),
    ("CO[C@H]1/C=C\\C=C(/C)C(=O)NC2=CC(=O)C(NC3CCN(Cc4ccccc4)CC3)=C(C[C@@H](C)C[C@H](OC)[C@H](O)[C@@H](C)/C=C(\\C)[C@@H]1OC(N)=O)C2=O", "met"),
]

From here, focus on the item given below.
## Task Check this compound for selectivity ratio at or above 3: "CO[C@@H](/C=C/C=C(/C)C(N)=O)[C@@H](OC(N)=O)/C(C)=C/[C@H](C)[C@@H](O)[C@H](C[C@H](C)CC1=C(NCCCCO)C(=O)C=C(NCCCCO)C1=O)OC"
## Result not met
